Molecular target: NF-kB p65 (RelA) homodimer (UniProt Q04206 Q04206:1-551)
Sequence (Q04206 whole entry, one chain of several): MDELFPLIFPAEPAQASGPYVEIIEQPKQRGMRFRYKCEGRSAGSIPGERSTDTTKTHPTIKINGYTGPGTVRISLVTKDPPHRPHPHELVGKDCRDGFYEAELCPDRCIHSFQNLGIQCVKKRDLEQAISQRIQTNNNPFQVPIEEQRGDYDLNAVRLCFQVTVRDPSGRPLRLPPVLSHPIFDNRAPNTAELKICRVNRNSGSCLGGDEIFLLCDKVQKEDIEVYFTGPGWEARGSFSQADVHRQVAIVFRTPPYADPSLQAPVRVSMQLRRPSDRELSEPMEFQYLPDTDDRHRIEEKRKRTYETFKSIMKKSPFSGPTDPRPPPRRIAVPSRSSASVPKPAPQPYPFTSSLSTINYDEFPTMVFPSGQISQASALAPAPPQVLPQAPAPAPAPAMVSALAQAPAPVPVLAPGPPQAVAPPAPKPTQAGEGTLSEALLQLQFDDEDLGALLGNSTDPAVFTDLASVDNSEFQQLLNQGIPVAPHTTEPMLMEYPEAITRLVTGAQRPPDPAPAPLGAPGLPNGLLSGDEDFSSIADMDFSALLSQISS
Test: EMSA; competitive EMSA; 5 to 15-fold tighter to p65/p65 than p50 homodimer
Settings: chain copies: 2 (stated homodimer)
readoutKind: Kd
Note to self: number, then unit, no commentary.

Return reported Kd. Input binder: XBY-6 (dsDNA, six phosphorodithioate linkages on the two strands, positions shown only in figures) DNA 1: CCAGGAGATTCCAC DNA 2: GTGGAATCTCCTGG
1.44 nM
